Give cytotoxicity at 10 µM for every item shown.
METHOD DESCRIPTION: Toxicity liver stage against HepG2, at 10uM
Format: cell-based
Parameters: test concentration 10 uM, cell line HepG2-A16-CD81EGFP
CONDITION SET: human, HepG2-A16-CD81EGFP cells; read-out: INHIBITION

CN(C)c1ncc2c(n1)C1(CCN(CC3CC3)C1)COC2 (stereo unspecified)	-12.9%
CCCNC(=O)C1CCN(CC(O)c2ccccc2)CC1 (stereo unspecified)	-2.21%
Cc1nnc(NC(=O)CN2CCc3c(nc(C(C)C)n3C)C2)s1	-1.94%
COc1ccc(CN2C[C@@H]3OCC(=O)N(CC(N)=O)[C@@H]3C2)cc1	-4.54%
CC(C)CC(=O)NC1CC2(CCN(CCF)CC2)Oc2ccccc21 (stereo unspecified)	1.08%

In the following, a different molecule is considered.
Q: Item Cc1nc(C(=O)N2CCOCC2)cc(N2CCC(C(N)=O)CC2)n1 has what recorded cytotoxicity at 10 µM?
A: 1.82%

====

METHOD DESCRIPTION: Toxicity liver stage against HepG2, at 10uM
Type: cell-based
Set-up: test concentration 10 uM, cell line HepG2-A16-CD81EGFP
CONDITION SET: human, HepG2-A16-CD81EGFP cells; read-out: INHIBITION
Give cytotoxicity at 10 µM for every item shown.
One number for each entry, in %.

Here's what some known entries look like.
Cc1csc(CCNC(=O)N2CCC(NC(=O)OC(C)(C)C)CC2)n1	1.23
CC(C)c1ncncc1C(=O)N1CCCN(Cc2ccccc2)CC1	-6.9

For each of the compounds below, state cytotoxicity at 10 µM.
1. CNc1cc(C)nc(-c2cc(NCCO)nc3[nH]ccc23)n1
2. CCc1nc(C2CCCN2C(=O)c2ccc3c(c2)COC3)no1 (configuration not stated)
3. Cc1noc(C)c1CN1CCN(Cc2nccn2C)CC1

A:
1. 5.85
2. -14.4
3. -4.93

For each of the compounds below, state cytotoxicity at 10 µM.
1. CC(C(=O)N1CCn2cncc2C1)N1CCCC1 (configuration not stated)
2. O=C(c1cnccn1)N1CCN2C[C@H](OCc3ccccc3)C[C@H]2C1
3. Cn1ccnc1CN1CCN2C[C@H](OCc3cccnc3)C[C@H]2C1
4. COc1cccc(CN(C)C(=O)CCC(=O)c2ccccc2)c1OC
5. Fc1cccc2c1CCC2NCc1cnc(N2CCOCC2)nc1 (configuration not stated)
6. Cc1ccccc1Oc1ncccc1CNS(=O)(=O)N(C)C

A:
1. 6.38
2. 1.44
3. -1.29
4. -3.62
5. 5.42
6. -4.09

Q: Item CC(C)OC(=O)N1C[C@@H]2CC[C@H]1CN(Cc1cccnc1)C2 has what recorded cytotoxicity at 10 µM?
A: 0.189

====

METHOD DESCRIPTION: Toxicity liver stage against HepG2, at 10uM
Type: cell-based
Set-up: test concentration 10 uM, cell line HepG2-A16-CD81EGFP
CONDITION SET: human, HepG2-A16-CD81EGFP cells; read-out: INHIBITION
ENDPOINT LABEL: cytotoxicity at 10 µM
Value and unit, in that order.

Cc1cnc(N2CCCOC(CN3CCCCC3)C2)nc1 (stereo unspecified)	-3.54%
O=C(CN1CCc2onc(-c3ccccc3F)c2C1)NC1CC1	14.6%
CCC(CC)n1nc(C)cc1NC(=O)C1CCOC1 (stereo unspecified)	-5.15%

For each of the compounds below, state cytotoxicity at 10 µM.
1. O=C(CCCOCc1ccccc1)N1CCCC(n2cncn2)C1 (stereo unspecified)
2. O=C(CCN1CCOC(CNc2cccnn2)C1)NC1CCCCC1 (stereo unspecified)
3. CN1CCC(c2n[nH]c(=O)n2CC2CCCCC2)CC1

A:
1: -17.5%; 2: 3.09%; 3: -45.2%
